B1: Caulobacter ParB omega fusion; a variant is named by its letters at X, in order, B8GW30 (parent)
chain: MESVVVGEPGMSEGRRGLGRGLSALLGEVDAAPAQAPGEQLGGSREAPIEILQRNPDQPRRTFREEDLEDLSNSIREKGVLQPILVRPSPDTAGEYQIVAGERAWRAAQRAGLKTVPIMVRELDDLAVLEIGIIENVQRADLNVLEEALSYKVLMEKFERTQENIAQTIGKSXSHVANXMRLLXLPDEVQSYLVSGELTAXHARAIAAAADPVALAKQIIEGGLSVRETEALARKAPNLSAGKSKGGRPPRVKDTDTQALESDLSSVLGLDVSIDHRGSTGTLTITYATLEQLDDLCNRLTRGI

variants of: B1; test: one-hybrid fitness for binding parS DNA (scaled: cognate 1, non-cognate 0); higher = stronger binding; details: with parS DNA site
In all, about 81,000 sequences were measured (“one-hybrid fitness for binding parS DNA”: median about -0.17, highest 2% from about 0.51 on). This excerpt belongs to a sample that is enriched for the highest values.
Attribute: one-hybrid fitness for binding parS DNA

# variant.code, relational.operator, one-hybrid fitness for binding parS DNA
records = [
    ("RHAP", "≤", 0.2),
    ("RGRA", "=", 0.496),
    ("RGAS", "=", 0.734),
    ("RGPT", "≤", 0.2),
    ("RVGS", "=", 0.954),
    ("RQRG", "=", 0.97),
    ("SETA", "≤", 0.2),
    ("RRRH", "=", 0.592),
    ("RSQD", "≤", 0.2),
    ("PNIE", "≤", 0.2),
    ("ALSN", "≤", 0.2),
    ("IATE", "≤", 0.2),
    ("RVHH", "=", 0.235),
    ("RQHG", "=", 1.01),
    ("RRYP", "≤", 0.2),
    ("RVQD", "≤", 0.2),
    ("RRYD", "≤", 0.2),
    ("RPST", "≤", 0.2),
    ("RKAS", "=", 0.832),
    ("RVGH", "≤", 0.2),
    ("RQHP", "≤", 0.2),
    ("RFQH", "≤", 0.2),
    ("GDYR", "≤", 0.2),
    ("RGYT", "=", 0.475),
    ("RGDT", "=", 0.371),
    ("RQHS", "=", 0.988),
    ("RGNF", "≤", 0.2),
    ("KLHC", "≤", 0.2),
    ("RGQS", "=", 0.803),
    ("RQRS", "=", 0.918),
    ("RKFP", "≤", 0.2),
    ("RSQN", "=", 0.427),
    ("RFDA", "=", 0.46),
    ("RQRD", "≤", 0.2),
    ("RGNT", "=", 0.609),
    ("RGRT", "=", 0.676),
    ("IRPG", "≤", 0.2),
    ("RGQD", "≤", 0.2),
    ("RCYA", "=", 0.619),
    ("RQHF", "=", 0.231),
    ("RSRA", "=", 0.605),
    ("RQRN", "=", 0.451),
    ("RKFS", "=", 0.927),
    ("RRNR", "≤", 0.2),
    ("RGFD", "≤", 0.2),
    ("YPTC", "≤", 0.2),
    ("RGAD", "≤", 0.2),
    ("RHFD", "≤", 0.2),
    ("RRHT", "=", 0.593),
    ("RVSN", "=", 0.426),
    ("DRHT", "≤", 0.2),
    ("RVHN", "=", 0.425),
    ("RHQH", "≤", 0.2),
    ("HMPW", "≤", 0.2),
    ("RQWK", "≤", 0.2),
    ("RGAH", "≤", 0.2),
    ("LMKM", "≤", 0.2),
    ("RRQF", "≤", 0.2),
    ("WHRF", "≤", 0.2),
    ("RDRA", "≤", 0.2),
    ("RRDH", "≤", 0.2),
    ("RQDH", "≤", 0.2),
    ("RRWS", "=", 0.772),
    ("RCST", "=", 0.923),
    ("RRNK", "≤", 0.2),
    ("RKFN", "=", 0.295),
    ("KFNA", "≤", 0.2),
    ("RMQN", "=", 0.501),
    ("FLDS", "≤", 0.2),
    ("RKAW", "≤", 0.2),
    ("RQGP", "≤", 0.2),
    ("RRWD", "≤", 0.2),
    ("RQRH", "=", 0.249),
    ("RQHN", "=", 0.425),
    ("RHFS", "=", 0.965),
    ("WSPS", "≤", 0.2),
    ("RRIH", "≤", 0.2),
    ("LCMG", "≤", 0.2),
    ("RMQS", "=", 1.02),
    ("RFQN", "=", 0.457),
    ("RVSS", "=", 0.975),
    ("RVSP", "≤", 0.2),
    ("RGSY", "=", 0.226),
    ("CRST", "≤", 0.2),
    ("RGST", "=", 0.601),
    ("KGRF", "≤", 0.2),
    ("RQRP", "≤", 0.2),
    ("RFNA", "=", 0.57),
    ("RSQS", "=", 0.984),
    ("REDA", "≤", 0.2),
    ("RRWP", "≤", 0.2),
]
